# Experiment Description: Biodistribution of 177Lu-labeled αMSH analogues in mice bearing B16F10 mouse melanoma
# Format: in vivo, C57BL/6J mice
# Recorded Conditions: mouse, stomach, iv, total radioactivity; 120 h p.i., C57BL/6J mice, B16F10 melanoma; read-out: Biodistribution, Stomach
Measured Parameter: tissue uptake at 120 h (%ID/g)
Only the number, expressed in %ID/g, is required.

For CCCC[C@H](NC(=O)CN1CCC(NC(=O)CN2CCN(CC(=O)O)CCN(CC(=O)O)CCN(CC(=O)O)CC2)CC1)C(=O)N[C@H]1CC(=O)NCCCC[C@@H](C(N)=O)N(C)C(=O)[C@H](Cc2c[nH]c3ccccc23)N(C)C(=O)[C@H](CCCNC(=N)N)N(C)C(=O)[C@@H](Cc2ccccc2)NC(=O)[C@H](Cc2c[nH]cn2)N(C)C1=O [^177Lu-labeled CCZ01099, metal not drawn] , what is its reported tissue uptake at 120 h?
0.12

====

# Experiment Description: Biodistribution of 177Lu-labeled αMSH analogues in mice bearing SK-MEL-1 human melanoma
# Recorded Conditions: male, NRG (NOD.Cg-Rag1tm1Mom Il2rgtm1Wjl/SzJ), mouse, heart, total radioactivity
Measured Parameter: tissue uptake at 1 h (%ID/g)
Quick reminder: number only, in %ID/g, skip the unit.

CCCC[C@H](NC(=O)CN1CCC(NC(=O)[C@H](CCCCNC(=O)CN2CCN(CC(=O)O)CCN(CC(=O)O)CCN(CC(=O)O)CC2)NC(=O)CNC(=O)CCCc2ccc(I)cc2)CC1)C(=O)N[C@H]1CC(=O)NCCCC[C@@H](C(N)=O)N(C)C(=O)[C@H](Cc2c[nH]c3ccccc23)NC(=O)[C@H](CCCNC(=N)N)N(C)C(=O)[C@@H](Cc2ccccc2)NC(=O)[C@H](Cc2c[nH]cn2)NC1=O [^177Lu-labeled CCZ01148, metal not drawn]    7.94
CCCC[C@H](NC(=O)CN1CCC(NC(=O)[C@H](CCCCNC(=O)CN2CCN(CC(=O)O)CCN(CC(=O)O)CCN(CC(=O)O)CC2)NC(=O)CNC(=O)CCCc2ccc(-c3ccc(C)cc3)cc2)CC1)C(=O)N[C@H]1CC(=O)NCCCC[C@@H](C(N)=O)N(C)C(=O)[C@H](Cc2c[nH]c3ccccc23)NC(=O)[C@H](CCCNC(=N)N)N(C)C(=O)[C@@H](Cc2ccccc2)NC(=O)[C@H](Cc2c[nH]cn2)NC1=O [^177Lu-labeled CCZ01158, metal not drawn]    4.7

Name the reported tissue uptake at 1 h value associated with the molecule CCCC[C@H](NC(=O)CN1CCC(NC(=O)[C@H](CCCCNC(=O)CN2CCN(CC(=O)O)CCN(CC(=O)O)CCN(CC(=O)O)CC2)NC(=O)[C@H](CCC(=O)O)NC(=O)CCCc2ccc(I)cc2)CC1)C(=O)N[C@H]1CC(=O)NCCCC[C@@H](C(N)=O)N(C)C(=O)[C@H](Cc2c[nH]c3ccccc23)NC(=O)[C@H](CCCNC(=N)N)N(C)C(=O)[C@@H](Cc2ccccc2)NC(=O)[C@H](Cc2c[nH]cn2)NC1=O [^177Lu-labeled CCZ01118, metal not drawn]
2.5

====

# tissue uptake at 24 h annotations
# Experiment Description: Biodistribution of 177Lu-labeled αMSH analogues in mice bearing B16F10 mouse melanoma
# Format: in vivo, C57BL/6J mice
# Recorded Conditions: mouse, adrenal glands, iv, total radioactivity; 24 h p.i., C57BL/6J mice, B16F10 melanoma; read-out: Biodistribution, Adrenal glands
Write the number in %ID/g without appending the unit.

CCCC[C@H](NC(=O)CN1CCC(NC(=O)CN2CCN(CC(=O)O)CCN(CC(=O)O)CCN(CC(=O)O)CC2)CC1)C(=O)N[C@H]1CC(=O)NCCCC[C@@H](C(N)=O)N(C)C(=O)[C@H](Cc2c[nH]c3ccccc23)NC(=O)[C@H](CCCNC(=N)N)N(C)C(=O)[C@@H](Cc2ccccc2)NC(=O)[C@H](Cc2c[nH]cn2)NC1=O [^177Lu-labeled CCZ01106, metal not drawn]    0.23
CCCC[C@H](NC(=O)CN1CCC(NC(=O)[C@H](CCCCNC(=O)CN2CCN(CC(=O)O)CCN(CC(=O)O)CCN(CC(=O)O)CC2)NC(=O)[C@H](CCC(=O)O)NC(=O)CCCc2ccc(I)cc2)CC1)C(=O)N[C@H]1CC(=O)NCCCC[C@@H](C(N)=O)N(C)C(=O)[C@H](Cc2c[nH]c3ccccc23)NC(=O)[C@H](CCCNC(=N)N)N(C)C(=O)[C@@H](Cc2ccccc2)NC(=O)[C@H](Cc2c[nH]cn2)NC1=O [^177Lu-labeled CCZ01118, metal not drawn]    0.2
CCCC[C@H](NC(=O)CN1CCC(NC(=O)[C@H](CCCCNC(=O)CN2CCN(CC(=O)O)CCN(CC(=O)O)CCN(CC(=O)O)CC2)NC(=O)[C@H](CCC(=O)O)NC(=O)CCCc2ccc(I)cc2)CC1)C(=O)N[C@H]1CC(=O)NCCCC[C@@H](C(N)=O)NC(=O)[C@H](Cc2c[nH]c3ccccc23)NC(=O)[C@H](CCCNC(=N)N)NC(=O)[C@@H](Cc2ccccc2)NC(=O)[C@H](Cc2c[nH]cn2)NC1=O [^177Lu-labeled CCZ01082, metal not drawn]    0.41

Here's the next entry for you.
Would you mind telling me what tissue uptake at 24 h value was observed for CCCC[C@H](NC(=O)CN1CCC(NC(=O)[C@H](CCCCNC(=O)CN2CCN(CC(=O)O)CCN(CC(=O)O)CCN(CC(=O)O)CC2)NC(=O)[C@H](CCC(=O)O)NC(=O)CCCc2ccc(I)cc2)CC1)C(=O)N[C@H]1CC(=O)NCCCC[C@@H](C(N)=O)N(C)C(=O)[C@H](Cc2c[nH]c3ccccc23)N(C)C(=O)[C@H](CCCNC(=N)N)N(C)C(=O)[C@@H](Cc2ccccc2)NC(=O)[C@H](Cc2c[nH]cn2)N(C)C1=O [^177Lu-labeled CCZ01088, metal not drawn] ?
0.62
